# ASSAY SYSTEM: Melanocortin receptor 3 (Homo sapiens)
# Sequence (P41968 whole entry): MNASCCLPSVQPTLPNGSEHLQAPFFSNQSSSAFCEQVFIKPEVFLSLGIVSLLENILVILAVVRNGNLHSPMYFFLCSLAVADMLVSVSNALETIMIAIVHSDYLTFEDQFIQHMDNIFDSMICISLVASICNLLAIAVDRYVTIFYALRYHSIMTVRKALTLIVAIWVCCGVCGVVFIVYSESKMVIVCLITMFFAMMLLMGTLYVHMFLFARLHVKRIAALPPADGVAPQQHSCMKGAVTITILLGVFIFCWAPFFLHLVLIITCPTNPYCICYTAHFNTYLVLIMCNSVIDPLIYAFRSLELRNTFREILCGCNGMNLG
# PROCEDURE SUMMARY: Displacement of [125I]-NAD-alpha-MSH from human recombinant MC3 receptor expressed in BHK570 cells after 1 hr in presence of ovalbumin
Would you mind telling me the reported Ki of each entry?
Answers are plain numbers, in µM.

// worked examples, Ki included
INSERT INTO results (chemical_structure, value_measured) VALUES
  ('CCCC[C@H](NC(=O)[C@H](CO)NC(=O)[C@H](Cc1cnc[nH]1)NC(=O)[C@H](CCC(N)=O)NC(=O)[C@H](CO)NC(=O)CNC(C)=O)C(=O)N[C@H]1CCC(=O)NCCCC[C@@H](C(N)=O)NC(=O)[C@H](Cc2c[nH]c3ccccc23)NC(=O)[C@H](CCCNC(=N)N)NC(=O)[C@@H](Cc2ccccc2)NC(=O)[C@@H]2C[C@@H](O)CN2C1=O', 0.045),
  ('CCCC[C@H](NC(=O)[C@H](CNC(=O)CN(CC(=O)O)CC(=O)O)NC(=O)[C@H](Cc1cnc[nH]1)NC(=O)[C@H](CCC(N)=O)NC(=O)[C@H](CO)NC(=O)CNC(=O)COCCOCCNC(=O)CCCCCCCCCCCCCCCc1nnn[nH]1)C(=O)N[C@H]1CCC(=O)NCCCC[C@@H](C(N)=O)NC(=O)[C@H](Cc2c[nH]c3ccccc23)NC(=O)[C@H](CCCN=C(N)N)NC(=O)[C@@H](Cc2ccccc2)NC(=O)[C@@H]2C[C@@H](O)CN2C1=O', 0.071),
  ('CCCC[C@H](NC(=O)[C@H](CCC(=O)O)NC(=O)[C@H](CCCN=C(N)N)NC(=O)[C@H](CCC(=O)O)NC(=O)[C@H](CCC(=O)O)NC(=O)CNC(=O)COCCOCCNC(=O)CCCCCCCCCCCCCCCc1nnn[nH]1)C(=O)N[C@H]1CCC(=O)NCCCC[C@@H](C(N)=O)NC(=O)[C@H](Cc2c[nH]c3ccccc23)NC(=O)[C@H](CCCN=C(N)N)NC(=O)[C@@H](Cc2ccccc2)NC(=O)[C@@H]2C[C@@H](O)CN2C1=O', 1.1),
  ('CCCC[C@H](NC(=O)[C@H](CCC(=O)O)NC(=O)[C@H](Cc1c[nH]cn1)NC(=O)[C@H](CCC(=O)O)NC(=O)[C@H](CCC(=O)O)NC(=O)CNC(=O)COCCOCCNC(=O)CCCCCCCCCCCCCCCc1nnn[nH]1)C(=O)N[C@H]1CCC(=O)NCCCC[C@@H](C(N)=O)NC(=O)[C@H](Cc2c[nH]c3ccccc23)NC(=O)[C@H](CCCNC(=N)N)NC(=O)[C@@H](Cc2ccccc2)NC(=O)[C@@H]2C[C@@H](O)CN2C1=O', 0.45);

Now look at this one.
## Task For the compound CCCC[C@H](NC(=O)[C@@H](N)CNC(=O)[C@H](Cc1cnc[nH]1)NC(=O)[C@H](CCC(N)=O)NC(=O)[C@H](CO)NC(=O)CNC(=O)COCCOCCNC(=O)CCCCCCCCCCCCCCCc1nnn[nH]1)C(=O)N[C@H]1CCC(=O)NCCCC[C@@H](C(N)=O)NC(=O)[C@H](Cc2c[nH]c3ccccc23)NC(=O)[C@H](CCCN=C(N)N)NC(=O)[C@@H](Cc2ccccc2)NC(=O)[C@@H]2C[C@@H](O)CN2C1=O , what Ki is on record?
## Result 0.121
